Tested on: SR leukemia
experimental-protocol: NCI-60 one-dose screen, 48 h
assay-context: 10 µM unless noted
Compounds without any hit were thinned out: in the full panel of roughly 83,000, 20% have a hit. Activity calls are given as the source filed them. The calls were made as follows: active = growth percent below 10; inactive = the rest.
Answer with one of the outcomes true (1) (active), false (0) (inactive)

Worked cases, answers included:
> print(dat)
                                   compound      class
1  COc1cccc2c1C(=O)c1c(O)c3c(c(O)c1C2=O)C[C@@](O)(C(=O)CO)C[C@@H]3OC1C[C@H](N)[C@H](O)[C@H](C)O1 (some centres undefined)   true (1)
2           C/C(=N\Nc1ccc2ccccc2n1)c1ccccn1   true (1)
3   CCN(CC)c1ccc(/C=C/c2cc(C)c3ccccc3n2)cc1  false (0)

Request: So what was the verdict on Fc1ccc2c(c1)c(-c1nc(-c3c[nH]c4ncccc34)cs1)cn2CCCN1CCCCC1 in this test?
Result: true (1)

Request: Tell me the assay call for CC(C)c1cc(C(=O)O)c(O)c(C(C)C)c1.CC(C)c1cc(C(=O)O)c(O)c(C(C)C)c1.[Mn] please.
Result: false (0)

----------
Tested on: HCT-15 colon
experimental-protocol: NCI-60 one-dose screen, 48 h (100 = growth as untreated, 0 = no growth, -100 = all killed)
assay-context: 10 µM unless noted
About 83,000 compounds went through this panel and 20% of them were active in at least one assay; those are over-represented in the sample as a whole. Calls of active or inactive are those of the source. How the source made its calls: active means growth percent below 10; inactive means the rest.
Entries and their growth

> print(dat)
                                   compound           tgt         measured
1  O=S(=O)(NCCNc1cc(-c2cn(-c3ccccc3)nc2-c2cccc(O)c2)ccn1)c1ccc(Br)cc1  HCT-15 colon    5.6% (active)
2  Cc1cc2nc3c4cc(Cl)ccc4n(CCN(C)C)c3nc2cc1C  HCT-15 colon  -25.1% (active)
3  O=S(=O)(NCCCNc1cc(-c2cn(-c3ccccc3)nc2-c2cccc(O)c2)ccn1)c1ccc(F)cc1  HCT-15 colon   6.54% (active)

Request: Notebook: pull reported growth for HCT-15 colon, entry Cc1cc2nc3c4cc(N)ccc4n(CCN(C)C)c3nc2cc1C
Result: -24% (active)

----------
Tested on: T-47D breast
experimental-protocol: NCI-60 one-dose screen, 48 h (100 = growth as untreated, 0 = no growth, -100 = all killed)
assay-context: 10 µM unless noted
The panel holds about 83,000 compounds, 20% with a hit somewhere; the sample as a whole holds those more often.
reported-property: growth (%)
Report the figure in % without appending any unit label.

> print(dat)
                                   compound  readout.units  measured
1       Fc1ccc(NCc2nnc(-c3ccc(Cl)cc3)o2)cc1              %        57
2  COc1ccc(/C=C(\C#N)c2cc3ccccc3n2S(C)(=O)=O)cc1              %      96.2

Request: Look up growth: N#C/C(=C\c1ccc(-c2ccc(Cl)cc2)o1)c1nc(-c2ccco2)cs1
Result: -27.1

----------
System: DU-145 prostate
experimental-protocol: NCI-60 one-dose screen, 48 h (100 = growth as untreated, 0 = no growth, -100 = all killed)
assay-context: 10 µM unless noted
The panel holds about 83,000 compounds, 20% with a hit somewhere; the sample as a whole holds those more often. The source made the active and inactive calls. The calls were made as follows: active = growth percent below 10; inactive = the rest.
reported-property: growth

Known growth results, listed for orientation:
> print(dat)
                                   molecule  reported.property          measured
1  N#CC1=C(N)Oc2c(c(N)nn2-c2ccccc2)C1c1ccc(Cl)cc1Cl (centres undefined)             growth   105% (inactive)
2  CC1(C)c2ccccc2C(=O)C1(Br)Cc1ccccc1 (centres undefined)             growth  92.5% (inactive)
3  CC(C)=CCC[C@](C)(O)[C@H]1CC[C@]2(C)[C@@H]1CC[C@@H]1[C@@]3(C)C/C(=C/c4ccc(Br)cc4)C(=O)C(C)(C)[C@@H]3CC[C@]12C             growth  85.6% (inactive)

Request: Return growth measured with DU-145 prostate given this molecule: COC(c1ccccc1)(c1ccccc1)c1ccccc1
Result: 108% (inactive)
